Provide the recorded pKd for the entries that follow.
Assayed System: αE2 (isolated E2 DNA-recognition helix peptide) (Human papillomavirus type 16?)
Assay: EMSA
The value called pKd is obtained by taking minus log10 of the concentration in mol/L.

Query: Please give the measured pKd for this sequence: GTAGCACAAATCGGTTGA (double strand) [hemisite E2-Dst]
Result: 5.20

Query: Please give the measured pKd for this sequence: ACATGGACCTGTCAAGTA (double strand) [Iset non E2-non Dst]
Result: 4.30
